- ASSAY: Plasma pharmacokinetics of SB939 in patients, LC–MS/MS, non-compartmental
- Format: in vivo, human
- MEASUREMENT CONDITIONS: human, plasma, po, plasma, 10 to 90 mg oral; read-out: Elimination (terminal) half-life, range over dose levels
MEASURED ATTRIBUTE: half-life

SMILES REPR	OBS VALUE
CCCCc1nc2cc(/C=C/C(=O)NO)ccc2n1CCN(CC)CC	5.6 to 8.9 h

====

- ASSAY: Plasma pharmacokinetics of SB939 in patients, LC–MS/MS, non-compartmental
- Type: in vivo, human
- MEASUREMENT CONDITIONS: human, plasma, oral, 10 mg, Day 1; dose level 1, 10 mg, 3 days every 2 weeks; read-out: T1/2, mean (converted)
MEASURED ATTRIBUTE: half-life (h)

SMILES REPR	MEASURED ATTRIBUTE	OBS VALUE
CCCCc1nc2cc(/C=C/C(=O)NO)ccc2n1CCN(CC)CC	half-life	7.1
